Assay: reducers of endogenous Her2 protein level, primary screen, SKBR3 breast tumor cells, AlphaScreen, ATP viability (AID 461);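 note: percent of carrier control wells set as 100% viability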
Settings: 18-24 h, measured here: SKBR3 viability, ATP luminescence, at 10 µM
viability by entry:
Write the value in % as a bare number.

Reference set, count: 6
O=C(Nc1ccc2oc(-c3ccncc3)nc2c1)c1cccs1 :: 96
CCOC(=O)c1c(C)oc2ccc(O)c(CN3CCCCC3)c12 :: 87.5
C=CCn1c(SCc2ccc(C#N)cc2)nnc1-c1cccc(Cl)c1 :: 95.5
COc1ccc(C)cc1S(=O)(=O)N(CC(=O)O)c1ccccc1 :: 118
Cc1nnc(N2C(=O)c3oc4ccccc4c(=O)c3C2c2ccco2)s1 (stereo unspecified) :: 93
O=C(NCC1CCCO1)c1ccccc1-c1nc(-c2ccc(Cl)cc2)no1 (stereo unspecified) :: 78.5

Read off the recorded viability for COc1ccc(CC(=O)Nc2ccc(-c3nnc(-c4ccc(C)cc4)o3)cc2)cc1
114

Read off the recorded viability for CC(C)OC(=O)CSc1nc2cccnc2n1C1CCCCC1
124

Read off the recorded viability for Cc1ccc(-n2c(=O)c(C#N)cc3c(=O)n4ccccc4nc32)cc1
100

Read off the recorded viability for COc1ccc(C)cc1NC(=O)COCC(=O)O
106

Read off the recorded viability for COc1cc(-c2nc(S(=O)(=O)c3ccccc3)c(N3CCOCC3)o2)cc(OC)c1OC
82.5
